Data origin: patent US9409952B2

# test details: PAMPA (parallel artificial membrane permeability assay)
# Assay type: in vitro ADME
# conditions used: PAMPA; membrane permeation rate (Pe); 50 mM MOPSO buffer pH 6.5 with 5.0% glycocholic acid, 37° C., 18 hours; read-out: iPAMPA Pe
# Method: 4 μL of a phospholipid-organic solvent solution composed of 10% (w/v) of egg lecithin, 0.5% (w/v) of cholesterol and dodecane (all purchased from Fluka) was added to a Millipore 96-well membrane filter (hydrophobic PVDF (polyvinylidene difluoride), pore size 0.45 microm) (purchased from Millipore Japan) to make an artificial phospholipid membrane. […]
Starred links: 1 amine or outer side, 2 acyl side, 3 side chain; linkers in the order of their positions; H or OH if unused. Positions of bridges follow the written chain, without caps; N, C: chain ends. Non-standard residues stand in square brackets, D forms with d. Residues, ends and D or L forms follow the SMILES beside them. *: point of attachment. X2 = O=C(C[C@H](N[*:1])C(F)(F)F)[*:2]; NMeF = CN[C@@H](Cc1ccccc1)C(=O)O; NMeGABA = CN(CCCC(=O)[*:2])[*:1]; NMeI = CC[C@H](C)[C@H](NC)C(=O)O; NMeβAla = CN(CCC(=O)[*:2])[*:1]; NMeL = CN[C@@H](CC(C)C)C(=O)O; NMeV = CN[C@H](C(=O)O)C(C)C; NMeS = CN[C@@H](CO)C(=O)O; NMeA = CN[C@@H](C)C(=O)O; Piperidide = C1CCN(*)CC1; dNMeA = CN[C@H](C)C(=O)O; Sar = CNCC(=O)O
Lab note: compare Papp at 18 hours, 50 µM with 30 ×10⁻⁶ cm/s, writing satisfied if less and not satisfied if equal or more.

Some solved entries appear below for comparison.
>  <molecule>
CC(C)C[C@@H]1NC(=O)[C@@H](C)N(C)C(=O)C[C@@H](C(=O)N2CCCCC2)NC(=O)[C@H]([C@@H](C)O)NC(=O)[C@H](CC(C)C)N(C)C(=O)[C@H](CC(C)C)N(C)C(=O)[C@H](Cc2ccccc2)NC(=O)[C@H](CC(C)C)N(C)C(=O)[C@H](Cc2ccccc2)N(C)C1=O [DP-343] ([dNMeA]L[NMeF][NMeL]F[NMeL][NMeL]TD-Piperidide; lactam N-9)

>  <label class>
not satisfied

$$$$
>  <molecule>
CC(C)C[C@@H]1NC(=O)[C@H](CC(C)C)N(C)C(=O)[C@H](C)N(C)C(=O)C[C@@H](C(=O)N(C)[C@@H](Cc2ccccc2)C(=O)N[C@@H](C)C(=O)N2CCCCC2)NC(=O)[C@H]([C@@H](C)O)NC(=O)[C@H](CC(C)C)N(C)C(=O)[C@H](Cc2ccccc2)NC(=O)[C@H](Cc2ccccc2)N(C)C(=O)[C@H](CC(C)C)N(C)C1=O [DP-387] ([NMeA][NMeL]L[NMeL][NMeF]F[NMeL]TD[NMeF]A-Piperidide; lactam N-9)

>  <label class>
satisfied

$$$$
>  <molecule>
CC(C)C[C@H]1C(=O)N[C@@H](C(C)C)C(=O)N(C)[C@@H](Cc2ccccc2)C(=O)NCC(=O)N[C@H](C(=O)N(C)[C@@H](Cc2ccccc2)C(=O)N(C)[C@@H](Cc2ccccc2)C(=O)N[C@@H](C)C(=O)N2CCCCC2)CC(=O)N[C@H](C)C(=O)N[C@@H]([C@@H](C)O)C(=O)N(C)[C@@H](C)C(=O)N(C)[C@@H](Cc2ccccc2)C(=O)N1C [DP-209] ([dA]T[NMeA][NMeF][NMeL]V[NMeF]GD[NMeF][NMeF]A-Piperidide; lactam N-9)

>  <label class>
not satisfied

$$$$
>  <molecule>
CC(C)C[C@H]1C(=O)N(C)[C@@H](CC(C)C)C(=O)N(C)[C@@H](CC(C)C)C(=O)N[C@H](C(=O)N2CCCCC2)CC(=O)N(C)CCC(=O)N(C)[C@@H](Cc2ccccc2)C(=O)N(C)[C@@H](CC(C)C)C(=O)N[C@@H]([C@@H](C)O)C(=O)N(C)[C@@H](C)C(=O)NCC(=O)N1C [DP-428] ([NMeβAla][NMeF][NMeL]T[NMeA]G[NMeL][NMeL][NMeL]D-Piperidide; lactam N-10)

>  <label class>
satisfied

$$$$
>  <molecule>
CC[C@H](C)[C@@H]1NC(=O)[C@@H](C)NC(=O)C[C@@H](C(=O)N(C)[C@@H](Cc2ccccc2)C(=O)N[C@@H](C)C(=O)N2CCCCC2)NC(=O)[C@H](Cc2ccccc2)N(C)C(=O)[C@H](C)NC(=O)[C@H](CC(C)C)N(C)C(=O)[C@H](C)N(C)C(=O)[C@H]([C@@H](C)O)NC(=O)[C@H](C(C)C)N(C)C(=O)[C@H](C)N(C)C1=O [DP-491] ([dA]I[NMeA][NMeV]T[NMeA][NMeL]A[NMeF]D[NMeF]A-Piperidide; lactam N-10)

>  <label class>
satisfied

$$$$
>  <molecule>
CC[C@H](C)[C@H]1C(=O)N(C)[C@@H](Cc2ccccc2)C(=O)N(C)[C@@H](CC(C)C)C(=O)N[C@H](C(=O)N2CCCCC2)CC(=O)N(C)[C@H](C)C(=O)N(C)[C@@H](CC(C)C)C(=O)N[C@@H]([C@@H](C)O)C(=O)N(C)[C@@H](C)C(=O)N[C@@H](C)C(=O)N(C)[C@@H](Cc2ccccc2)C(=O)N[C@@H](CC(C)C)C(=O)N1C [DP-244] ([dNMeA][NMeL]T[NMeA]A[NMeF]L[NMeI][NMeF][NMeL]D-Piperidide; lactam N-11)

>  <label class>
not satisfied

$$$$
>  <molecule>
CC[C@H](C)[C@H]1C(=O)N[C@@H](CC(C)C)C(=O)N(C)[C@@H](CC(C)C)C(=O)N[C@H](C(=O)N2CCCCC2)CC(=O)N(C)CCCC(=O)N(C)[C@@H](CC(C)C)C(=O)N[C@@H]([C@@H](C)O)C(=O)N(C)[C@@H](C)C(=O)N[C@@H](C)C(=O)N(C)[C@@H](Cc2ccccc2)C(=O)N(C)[C@@H](Cc2ccccc2)C(=O)N1C [DP-249] ([NMeGABA][NMeL]T[NMeA]A[NMeF][NMeF][NMeI]L[NMeL]D-Piperidide; lactam N-11)

>  <label class>
not satisfied

$$$$
>  <molecule>
CC[C@H](C)[C@H]1C(=O)N(C)[C@@H](CC(C)C)C(=O)N[C@H](C(=O)N2CCCCC2)CC(=O)N(C)CCC(=O)N(C)[C@@H](CC(C)C)C(=O)N[C@@H]([C@@H](C)O)C(=O)N(C)[C@@H](C)C(=O)N(C)[C@@H](Cc2ccccc2)C(=O)N[C@@H](C)C(=O)N(C)[C@@H](Cc2ccccc2)C(=O)N[C@@H](CC(C)C)C(=O)N1C [DP-240] ([NMeβAla][NMeL]T[NMeA][NMeF]A[NMeF]L[NMeI][NMeL]D-Piperidide; lactam N-11)

>  <label class>
not satisfied

$$$$

Ask: Hi there! Is Papp at 18 hours, 50 µM for CC(C)C[C@H]1C(=O)N[C@@H](C(C)C)C(=O)N(C)[C@@H](CC(C)C)C(=O)N[C@@H](C)C(=O)N[C@H](C)C(=O)N(C)[C@@H](CC(C)C)C(=O)N(C)[C@@H](CC(C)C)C(=O)N(C)[C@@H](CC(C)C)C(=O)N(C)[C@@H](CO)C(=O)N[C@H](C(F)(F)F)CC(=O)N(C)CC(=O)N1C [DP-654] (cyclo(A[dA][NMeL][NMeL][NMeL][NMeS][X2][Sar][NMeL]V[NMeL])) below 30 ×10⁻⁶ cm/s, do you know?
Result: satisfied
